Data provenance: PubChem BioAssay AID1645866

tested_on: Ubiquitin carboxyl-terminal hydrolase 28 (Homo sapiens) (UniProt Q96RU2)
Sequence (Q96RU2 whole entry, looked up): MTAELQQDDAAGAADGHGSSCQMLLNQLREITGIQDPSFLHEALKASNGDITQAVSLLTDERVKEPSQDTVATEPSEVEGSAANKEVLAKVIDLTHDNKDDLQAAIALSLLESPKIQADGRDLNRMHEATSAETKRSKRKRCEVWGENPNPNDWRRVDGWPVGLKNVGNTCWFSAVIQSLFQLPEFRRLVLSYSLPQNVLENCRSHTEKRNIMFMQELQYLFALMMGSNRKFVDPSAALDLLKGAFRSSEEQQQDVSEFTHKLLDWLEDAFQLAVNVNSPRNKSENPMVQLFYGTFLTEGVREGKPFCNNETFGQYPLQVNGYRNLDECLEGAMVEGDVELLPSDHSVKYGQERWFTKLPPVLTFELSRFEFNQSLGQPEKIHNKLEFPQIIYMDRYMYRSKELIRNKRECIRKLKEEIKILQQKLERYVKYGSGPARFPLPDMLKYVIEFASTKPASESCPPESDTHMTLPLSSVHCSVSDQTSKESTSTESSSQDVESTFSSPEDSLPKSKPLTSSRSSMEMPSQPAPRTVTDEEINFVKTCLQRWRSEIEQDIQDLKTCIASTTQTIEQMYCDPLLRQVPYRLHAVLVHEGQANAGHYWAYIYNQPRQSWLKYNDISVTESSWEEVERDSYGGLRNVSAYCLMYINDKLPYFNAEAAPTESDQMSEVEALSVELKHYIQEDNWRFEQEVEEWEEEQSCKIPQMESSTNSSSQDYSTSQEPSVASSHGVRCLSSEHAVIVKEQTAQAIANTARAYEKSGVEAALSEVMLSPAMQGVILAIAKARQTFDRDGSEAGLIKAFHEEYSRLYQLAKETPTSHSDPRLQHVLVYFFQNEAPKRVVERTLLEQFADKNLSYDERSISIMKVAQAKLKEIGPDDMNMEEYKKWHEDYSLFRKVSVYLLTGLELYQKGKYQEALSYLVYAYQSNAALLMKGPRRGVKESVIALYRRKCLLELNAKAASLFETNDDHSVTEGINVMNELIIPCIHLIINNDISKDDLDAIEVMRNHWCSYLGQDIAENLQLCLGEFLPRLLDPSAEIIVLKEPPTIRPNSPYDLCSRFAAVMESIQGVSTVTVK
method: Concentration-response biochemical assay confirming initial hits as inhibitors of ubiquitin-specific protease 28 (AID 1645866)
condition_description: purified USP28, ubiquitin-rhodamine fluorescence, 30 min
Active and inactive are the calls of the source.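 Rule for the calls: active = in confirmatory dose-response testing, peak deubiquitinase inhibition of 30% or more; inactive = the rest.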
Labels: active, inactive

smiles_input=COc1cccc(NC(=O)Cc2sc(Nc3cc(C)cc(C)c3)nc2O)c1 label_class=active
smiles_input=Cc1cc(C(=O)Nc2cc(C)n(Cc3ccc(Cl)cc3)n2)no1 label_class=active
smiles_input=Cc1cc(C(=O)NC2(O)C(=O)c3ccccc3C2=O)n(C)n1 label_class=active
smiles_input=Cc1ccc(Nc2nc(O)c(CC(=O)Nc3ccccc3C)s2)cc1C label_class=active
smiles_input=COc1ccc(NC(=O)Cn2cc(C(=O)c3ccc(C)cc3)c(=O)c3ccccc32)cc1 label_class=active
smiles_input=CCOc1ccc(NC(=O)Cn2c(=O)n(CCC(=O)NCc3ccco3)c(=O)c3ccccc32)cc1 label_class=active
smiles_input=Fc1cnc(N2CC[C@H]3CO[C@H](CNc4ncccn4)[C@H]3C2)nc1 label_class=inactive
smiles_input=COc1ccc2c(c1)CCc1c-2n[nH]c1C(=O)Nc1cc(C)on1 label_class=active
smiles_input=Cc1ccc(C(=O)NCC(=O)Nc2nc3ccccc3[nH]2)c(C)c1 label_class=active
smiles_input=Oc1ccc(-c2nc3cnccn3c2NCCc2ccccc2)c(O)c1 label_class=inactive
